molecular target: Protein kinase 7 (PK7), Plasmodium falciparum 3D7 (PF3D7_0213400); experiment: inhibition of Plasmodium PK7 catalytic activity – biochemical, TCAMS antimalarial set, Kinase-Glo luminescence (AID 1159587); settings: recombinant PfPK7, Kinase-Glo ATP depletion luminescence
Active and inactive are the calls of the source. The rule behind the calls is not given here.

[
  {
    "molecule": "CN1CCC(C(=O)Nc2ccc(-c3ccc(-c4nc5ccccc5[nH]4)cc3)cc2)CC1",
    "measured-target": "Protein kinase 7 (PK7), Plasmodium falciparum 3D7 (PF3D7_0213400)",
    "outcome": "inactive"
  },
  {
    "molecule": "CC(C)Sc1nncc(-c2cnnc(SC(C)C)n2)n1",
    "measured-target": "Protein kinase 7 (PK7), Plasmodium falciparum 3D7 (PF3D7_0213400)",
    "outcome": "inactive"
  },
  {
    "molecule": "CC(=O)Nc1ccc(C(=O)Nc2cccc(-c3ccc(-c4nc5ccc(F)cc5[nH]4)cc3)c2)cn1",
    "measured-target": "Protein kinase 7 (PK7), Plasmodium falciparum 3D7 (PF3D7_0213400)",
    "outcome": "inactive"
  },
  {
    "molecule": "NC(=O)c1cc2nc(Nc3ccc(F)cc3)nc(Nc3ccc(S(N)(=O)=O)cc3)c2[nH]1",
    "measured-target": "Protein kinase 7 (PK7), Plasmodium falciparum 3D7 (PF3D7_0213400)",
    "outcome": "inactive"
  },
  {
    "molecule": "Oc1ccc(CCNc2nc(NCc3ccccc3-c3ccc(C(F)(F)F)cc3)nc(N3CCCNCC3)n2)cc1",
    "measured-target": "Protein kinase 7 (PK7), Plasmodium falciparum 3D7 (PF3D7_0213400)",
    "outcome": "inactive"
  },
  {
    "molecule": "Fc1ccc(C=NNc2ccnc3ccccc23)cc1",
    "measured-target": "Protein kinase 7 (PK7), Plasmodium falciparum 3D7 (PF3D7_0213400)",
    "outcome": "inactive"
  },
  {
    "molecule": "CCOC(=O)c1ccc2nc(-c3ccc(C(=O)NCc4ccc(C(C)(C)C)cc4)cc3)[nH]c2c1",
    "measured-target": "Protein kinase 7 (PK7), Plasmodium falciparum 3D7 (PF3D7_0213400)",
    "outcome": "inactive"
  },
  {
    "molecule": "COc1ccc2nc3cc(Cl)ccc3c(Nc3ccc(Sc4ccc(Nc5c6ccc(Cl)cc6nc6ccc(OC)cc56)cc4)cc3)c2c1",
    "measured-target": "Protein kinase 7 (PK7), Plasmodium falciparum 3D7 (PF3D7_0213400)",
    "outcome": "inactive"
  },
  {
    "molecule": "Cc1cc(N)nc2ccc(-c3ccc(CN)cc3)cc12",
    "measured-target": "Protein kinase 7 (PK7), Plasmodium falciparum 3D7 (PF3D7_0213400)",
    "outcome": "inactive"
  },
  {
    "molecule": "O=C(Nc1ccc(Cl)cc1)Nc1ccc2c(c1)N1CCN=C1S2",
    "measured-target": "Protein kinase 7 (PK7), Plasmodium falciparum 3D7 (PF3D7_0213400)",
    "outcome": "inactive"
  },
  {
    "molecule": "Oc1ccc2[nH]c(-c3cccs3)nc2c1CN1CCC(O)(c2ccccc2)CC1",
    "measured-target": "Protein kinase 7 (PK7), Plasmodium falciparum 3D7 (PF3D7_0213400)",
    "outcome": "inactive"
  },
  {
    "molecule": "CSc1ccc(C=CC(=O)NC(=O)c2ccccc2O)cc1",
    "measured-target": "Protein kinase 7 (PK7), Plasmodium falciparum 3D7 (PF3D7_0213400)",
    "outcome": "inactive"
  },
  {
    "molecule": "CC(c1cccc(S(=O)(=O)NCc2cccc(C(F)(F)F)c2)c1)N1CCC(N2CCCCC2)CC1 (stereo not drawn)",
    "measured-target": "Protein kinase 7 (PK7), Plasmodium falciparum 3D7 (PF3D7_0213400)",
    "outcome": "inactive"
  },
  {
    "molecule": "OCC(CO)(CO)NCc1ccc2c3c(cccc13)-c1ccccc1-2",
    "measured-target": "Protein kinase 7 (PK7), Plasmodium falciparum 3D7 (PF3D7_0213400)",
    "outcome": "inactive"
  },
  {
    "molecule": "CN(CCCCCNC(=O)/C=C/c1ccc(Cl)c(Cl)c1)CCCCc1c[nH]c2ccccc12",
    "measured-target": "Protein kinase 7 (PK7), Plasmodium falciparum 3D7 (PF3D7_0213400)",
    "outcome": "inactive"
  },
  {
    "molecule": "CCC(C)NS(=O)(=O)c1ccc2nc(Nc3ccc(C)cc3)n(C3CCCCC3C)c2c1 (stereo not drawn)",
    "measured-target": "Protein kinase 7 (PK7), Plasmodium falciparum 3D7 (PF3D7_0213400)",
    "outcome": "inactive"
  },
  {
    "molecule": "CCOC(=O)CCCOc1c(OC)cc(Cc2cnc(N)nc2N)cc1OC",
    "measured-target": "Protein kinase 7 (PK7), Plasmodium falciparum 3D7 (PF3D7_0213400)",
    "outcome": "inactive"
  },
  {
    "molecule": "CC(C)N1CCC(N(Cc2ccc(-c3ccc(C(F)(F)F)cc3)cc2)C(=O)Cn2c(SCc3cccc(F)c3F)cc(=O)c3ccccc32)CC1",
    "measured-target": "Protein kinase 7 (PK7), Plasmodium falciparum 3D7 (PF3D7_0213400)",
    "outcome": "inactive"
  },
  {
    "molecule": "CC(=O)N[C@H](C(=O)Nc1ccc(-c2ccc(-c3nc4ccc(C(F)(F)F)cc4[nH]3)cc2)cc1)C(C)C",
    "measured-target": "Protein kinase 7 (PK7), Plasmodium falciparum 3D7 (PF3D7_0213400)",
    "outcome": "inactive"
  },
  {
    "molecule": "Cc1cccc2[nH]c(-c3ccc(-c4ccc(CNCCCNS(C)(=O)=O)cc4)s3)nc12",
    "measured-target": "Protein kinase 7 (PK7), Plasmodium falciparum 3D7 (PF3D7_0213400)",
    "outcome": "inactive"
  },
  {
    "molecule": "Cc1cccc2[nH]c(-c3ccc(-c4ccc(CNCc5cccc(N)c5)cc4)cc3)nc12",
    "measured-target": "Protein kinase 7 (PK7), Plasmodium falciparum 3D7 (PF3D7_0213400)",
    "outcome": "inactive"
  },
  {
    "molecule": "CCNc1cc(C(=O)N[C@@H](Cc2ccccc2)[C@H](O)CNC(C)Cc2cccc(Cl)c2)cc(N2CCCCS2(=O)=O)c1 (stereo partly drawn)",
    "measured-target": "Protein kinase 7 (PK7), Plasmodium falciparum 3D7 (PF3D7_0213400)",
    "outcome": "inactive"
  },
  {
    "molecule": "O=C(Nc1cccc(-c2ccc(CN3CCCC3)cc2)c1)c1cccc(F)c1",
    "measured-target": "Protein kinase 7 (PK7), Plasmodium falciparum 3D7 (PF3D7_0213400)",
    "outcome": "inactive"
  },
  {
    "molecule": "O=C(CN1CCC2(CCC1=O)CC(=O)c1ccccc1O2)NCCN1CCOCC1 (stereo not drawn)",
    "measured-target": "Protein kinase 7 (PK7), Plasmodium falciparum 3D7 (PF3D7_0213400)",
    "outcome": "inactive"
  },
  {
    "molecule": "C=CCN1C(=O)C(=Cc2cc(Br)ccc2O)SC1=Nc1ccccc1",
    "measured-target": "Protein kinase 7 (PK7), Plasmodium falciparum 3D7 (PF3D7_0213400)",
    "outcome": "inactive"
  },
  {
    "molecule": "O=C(c1ccc(F)cc1)N1CCOC(CCN2CCC(c3ccccc3)CC2)(c2ccc(Cl)c(Cl)c2)C1 (stereo not drawn)",
    "measured-target": "Protein kinase 7 (PK7), Plasmodium falciparum 3D7 (PF3D7_0213400)",
    "outcome": "inactive"
  },
  {
    "molecule": "C#CCNCc1ccc(-c2ccc(-c3nc4ccc(C(F)(F)F)cc4[nH]3)s2)cc1",
    "measured-target": "Protein kinase 7 (PK7), Plasmodium falciparum 3D7 (PF3D7_0213400)",
    "outcome": "inactive"
  },
  {
    "molecule": "CCCCCCN1CCCN(Cc2ccc(C(=O)Nc3ccc(CCC)cc3)cc2)CC1",
    "measured-target": "Protein kinase 7 (PK7), Plasmodium falciparum 3D7 (PF3D7_0213400)",
    "outcome": "inactive"
  },
  {
    "molecule": "CNc1c2c(nc3ccc(NC(=O)CCCCCCc4ccccc4)cc13)CCCC2",
    "measured-target": "Protein kinase 7 (PK7), Plasmodium falciparum 3D7 (PF3D7_0213400)",
    "outcome": "inactive"
  },
  {
    "molecule": "CC(C)Cc1cn(-c2nc(-c3nc4ccccc4[nH]3)cs2)c2cc(Cl)ccc12",
    "measured-target": "Protein kinase 7 (PK7), Plasmodium falciparum 3D7 (PF3D7_0213400)",
    "outcome": "inactive"
  },
  {
    "molecule": "Cc1nc(N)nc(N)c1OCc1cccc2ccccc12",
    "measured-target": "Protein kinase 7 (PK7), Plasmodium falciparum 3D7 (PF3D7_0213400)",
    "outcome": "inactive"
  },
  {
    "molecule": "Cc1ccccc1C1CCN(C2CCC(NC(=O)/C=C/c3cccc(Cl)c3Cl)CC2)CC1 (stereo not drawn)",
    "measured-target": "Protein kinase 7 (PK7), Plasmodium falciparum 3D7 (PF3D7_0213400)",
    "outcome": "inactive"
  },
  {
    "molecule": "CS(=O)(=O)NCCCNCc1ccc(-c2ccc(-c3nc4ccc(C(F)(F)F)cc4[nH]3)s2)cc1",
    "measured-target": "Protein kinase 7 (PK7), Plasmodium falciparum 3D7 (PF3D7_0213400)",
    "outcome": "inactive"
  },
  {
    "molecule": "CCCNS(=O)(=O)c1ccc(NC(=O)C(C)Oc2ccc([N+](=O)[O-])cc2)cc1 (stereo not drawn)",
    "measured-target": "Protein kinase 7 (PK7), Plasmodium falciparum 3D7 (PF3D7_0213400)",
    "outcome": "inactive"
  },
  {
    "molecule": "COc1cc(C(=O)N2CCOC(CCN3CCC(Cc4ccc(F)cc4)CC3)(c3ccc(Cl)c(Cl)c3)C2)cc(OC)c1OC (stereo not drawn)",
    "measured-target": "Protein kinase 7 (PK7), Plasmodium falciparum 3D7 (PF3D7_0213400)",
    "outcome": "inactive"
  },
  {
    "molecule": "Cc1ccc(-c2ccn(Cc3ccc(OCc4ccccc4)cc3)n2)cn1 (tested in a mixture with another compound)",
    "measured-target": "Protein kinase 7 (PK7), Plasmodium falciparum 3D7 (PF3D7_0213400)",
    "outcome": "inactive"
  },
  {
    "molecule": "Cc1noc(-c2ccc3c(c2)CCN(CCC2CCC(NC(=O)c4cc5ccccc5[nH]4)CC2)CC3)n1 (stereo not drawn)",
    "measured-target": "Protein kinase 7 (PK7), Plasmodium falciparum 3D7 (PF3D7_0213400)",
    "outcome": "inactive"
  },
  {
    "molecule": "CCCC(C)N(Cc1ccc(C(C)(C)C)cc1)C(=O)c1cccc(OC)c1 (stereo not drawn)",
    "measured-target": "Protein kinase 7 (PK7), Plasmodium falciparum 3D7 (PF3D7_0213400)",
    "outcome": "inactive"
  }
]
